From: ChEMBL document CHEMBL1201862

System: MOLT-4
Assay: NCI tumour cell line growth inhibition, 48 h
Activity calls are given as the source filed them. No stated cut-off is given here; in the data, active = GI50 up to about 1.1 µM and inactive = higher.
Choose one outcome from this list and give only that: yes (active), no (inactive)

O=C(Nc1cc2cc([N+](=O)[O-])ccc2oc1=O)c1cccs1 :: no

Hi team, can someone confirm the assay call for `COc1cc([N+](=O)[O-])c(S(=O)(=O)O)cc1-n1nc(C(=O)Nc2ccccc2)n[n+]1-c1cc(S(=O)(=O)[O-])c([N+](=O)[O-])cc1OC` ?
no

Next compound up: CC(=O)NC1CONC1=O (stereo not drawn)
no

For `Cc1cccc(-c2nnc3s/c(=C\c4ccc5c(c4)OCO5)c(=O)n23)c1` then?
no

Next compound up: COC(=O)C(CCSC)NC(=O)Cc1ccc(C(=O)c2ccccc2)cc1 (stereo not drawn)
no

Next up: COC(=O)C1=C(O)C(C(=O)OC)[C@]2(O)[C@H](C(=O)OC)[C@H]1C[C@@H](c1cccc(OC)c1)[C@H]2C(=O)OC (stereo partly drawn)
no

Next compound up: COC(=O)c1c(C)cc2c(c1O)C1(O)C(=O)c3cc4c(c(O)c3C(=O)C1(OC)C(O)C2)C(=O)C=C(NC1OC(C)C(OC)C(O)C1OC)C4=O (stereo not drawn)
yes

And then `O=c1c(F)cn(Cc2c(Cl)cccc2Cl)c(=O)n1Cc1c(Cl)cccc1Cl` , what is it?
no

What do you have for CCOP(C)(=O)C(N)Cc1ccc(OC)c(OC)c1 (stereo not drawn) ?
no

Queued: `COc1ccc(-c2cc(O)c3cc(C)cnc3n2)cc1`
no

Entry `N=C(N)Nc1nc2cc([N+](=O)[O-])ccc2[nH]1` please
no

And what about the compound `CCOC(=O)c1c2ccc(/C=C/C(=O)OC)ccc-2c(C(=O)OCC)c1N` ?
no

Further, for `Cc1ccccc1NC(=O)c1ccc([N+](=O)[O-])cc1` ?
no
